Assay: M. tuberculosis growth inhibition, HTS (AID 449762);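 also: bacterial growth assessed after seven days of incubation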
Conditions: M. tuberculosis H37Rv growth inhibition, 7H9 media; at 25 µM; stronger effect = higher value
Screen size: about 330,000 compounds; about 1,900 (0.58%) were called active. Inconclusive results (about 4%) are left out. The list is a sample of the results. Results with a measured potency or affinity are listed apart.
In this section we review reported inhibition values for a set of compounds.
Write the number in % without appending the unit.

Worked examples follow.
[
  {
    "compound": "CCOC(=O)c1c(NC(=O)c2ccccc2C(=O)O)sc2c1CCCC2",
    "unit abbreviation": "%",
    "inhibition": -6.92
  },
  {
    "compound": "CCOC(=O)c1c(NC(=O)c2ccccc2C(=O)O)sc2c1CCC2",
    "unit abbreviation": "%",
    "inhibition": -2.86
  },
  {
    "compound": "CCOc1ccccc1-c1nc(SCC(=O)O)n[nH]1",
    "unit abbreviation": "%",
    "inhibition": 2.12
  },
  {
    "compound": "O=C(COc1ccccc1)NCC(=O)N1CCCCCC1",
    "unit abbreviation": "%",
    "inhibition": -3.96
  },
  {
    "compound": "Cc1ccc(-c2nc(S(=O)(=O)c3ccc(C)cc3)c(SCC(=O)NCC3CCCO3)o2)cc1 (stereo not given)",
    "unit abbreviation": "%",
    "inhibition": 8.98
  },
  {
    "compound": "Cc1nnc(N2C(=O)c3cccc4c([N+](=O)[O-])ccc(c34)C2=O)s1",
    "unit abbreviation": "%",
    "inhibition": -2.32
  },
  {
    "compound": "CC1CC(NS(=O)(=O)c2cc3c4c(c2)CCN4C(=O)CC3)CC(C)(C)C1 (stereo not given)",
    "unit abbreviation": "%",
    "inhibition": 12.2
  },
  {
    "compound": "O=C(CSc1nncc2ccccc12)N1CCOCC1",
    "unit abbreviation": "%",
    "inhibition": -0.48
  }
]

For this compound ( COc1cccc(C2CC(c3ccc(Br)cc3)=NN2C(=O)c2ccncc2)c1OC (stereo not given) ), measured inhibition is 10.4

For this compound ( CSc1ccc(CCNC(=O)c2cc(C)nn2-c2ccccc2)cc1 ), measured inhibition is 3.36

For this compound ( Cc1noc(C)c1CSCC(=O)Nc1cccc(C(F)(F)F)c1 ), measured inhibition is -7.37

For this compound ( CN1/C(=C\C(=O)c2ccco2)C(C)(C)c2ccccc21 ), measured inhibition is 1.21

For this compound ( CC(=O)Nc1ccc(S(=O)(=O)Nc2ccc(N3CCOCC3)cc2)cc1 ), measured inhibition is 1.49

For this compound ( CCN(CC)CCOc1ccc2c(c1)C(=NO)c1cc(OCCN(CC)CC)ccc1-2 ), measured inhibition is 9.59

For this compound ( COCCCn1c(SCc2ccc(OC)cc2)nc2cc(OC)c(OC)cc2c1=N ), measured inhibition is -4.77

For this compound ( CCc1ccc(C(=O)COC(=O)C(CCSC)NC(=O)C23CC4CC(CC(C4)C2)C3)cc1 (stereo not given) ), measured inhibition is 1.72

For this compound ( CSc1ncc(C(=O)Nc2ccccc2C)c(C)n1 ), measured inhibition is 58.1

For this compound ( Cc1ccc(N2C(=O)c3cccc([N+](=O)[O-])c3C2=O)cc1C ), measured inhibition is -6.94

For this compound ( CC1(C)Cc2c(cnn2-c2ccccc2)C(=O)/C1=N\NC(=O)c1ccccc1O ), measured inhibition is 0.99

For this compound ( O=C1c2ccccc2C(=O)N1C(CO)C(O)c1ccc([N+](=O)[O-])cc1 (stereo not given) ), measured inhibition is -1.67

----------
Experiment: M. tuberculosis growth inhibition, HTS (AID 449762);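 also: bacterial growth assessed after seven days of incubation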
Conditions: M. tuberculosis H37Rv growth inhibition, 7H9 media; at 25 µM; stronger effect = higher value
The campaign covered roughly 330,000 compounds. About 1,900 (0.58%) were called active. Inconclusive results (about 4%) are left out. Not all results are given here. Potency and affinity values are given separately.
In this section we review reported inhibition values for a set of compounds.
Write the number in % without appending the unit.

Worked examples follow.
[
  {
    "compound string": "Cc1ccc(NC(=O)[C@@H](CC(C)C)NC(=O)[C@@H]2Cc3ccccc3CN2)cc1",
    "inhibition / %": 2.07
  },
  {
    "compound string": "O=c1c2sccc2nc(SCc2ccc([N+](=O)[O-])cc2)n1Cc1ccccn1",
    "inhibition / %": 4.82
  }
]

Please look at the following compound next.
For this compound ( COc1ccc(C(=O)CSc2ncnc3nc[nH]c23)cc1 ), measured inhibition is -0.73

----------
Experiment: M. tuberculosis growth inhibition, HTS (AID 449762);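 also: bacterial growth assessed after seven days of incubation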
Conditions: M. tuberculosis H37Rv growth inhibition, 7H9 media; at 25 µM; stronger effect = higher value
The whole screen tested about 330,000 compounds, of which about 1,900 (0.58%) were called active. Not shown: some 4% with an inconclusive outcome. Only a sample is shown. Results with a measured potency or affinity are listed apart.
In this section we review reported inhibition values for a set of compounds.
Write the number in % without appending the unit.

[
  {
    "compound": "C=CCn1c(SCC(=O)Nc2ccccc2F)nnc1C(C)NC(=O)c1ccccc1F (stereo not drawn)",
    "unit abbreviation": "%",
    "inhibition": -12.4
  },
  {
    "compound": "CC(=O)Nc1ccc(SCC(=O)Nc2sccc2C#N)cc1",
    "unit abbreviation": "%",
    "inhibition": -2.99
  },
  {
    "compound": "Cn1c(=O)cc(SCC(=O)N2CCCC2)c2ccc(Cl)cc21",
    "unit abbreviation": "%",
    "inhibition": 3.77
  }
]

For this compound ( C=CCNC(=S)NC(=O)c1csc([N+](=O)[O-])c1 ), measured inhibition is 18.2

----------
Test: M. tuberculosis growth inhibition, HTS (AID 449762);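 also: bacterial growth assessed after seven days of incubation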
Settings: M. tuberculosis H37Rv growth inhibition, 7H9 media; at 25 µM; stronger effect = higher value
The whole screen tested about 330,000 compounds, of which about 1,900 (0.58%) were called active. Inconclusive results (about 4%) are left out. The list is a sample of the results. Entries with a potency or affinity are not part of this list.
In this section we review reported inhibition values for a set of compounds.
Write the number in % without appending the unit.

Worked examples follow.
[
  {
    "compound": "CC1(C)CC(=O)C=C(c2cccc(Br)c2)C1",
    "unit abbreviation": "%",
    "value measured": -4.12
  },
  {
    "compound": "CCOc1ccc(/C=N/NC(=O)C(C)N(c2ccc(OC)cc2)S(C)(=O)=O)cc1 (stereo not given)",
    "unit abbreviation": "%",
    "value measured": -10.4
  },
  {
    "compound": "COc1ccccc1NC(=O)Nc1ccc(F)c(F)c1",
    "unit abbreviation": "%",
    "value measured": 0.47
  },
  {
    "compound": "COc1ccc(-n2nnc3c(=O)n(CC(=O)N4CCC(Cc5ccccc5)CC4)cnc32)cc1",
    "unit abbreviation": "%",
    "value measured": -2.79
  },
  {
    "compound": "CC1CCc2cc(F)ccc2N1C(=O)c1cccs1 (stereo not given)",
    "unit abbreviation": "%",
    "value measured": 1.29
  }
]

Please look at the following compound next.
For this compound ( Fc1ccc(/C=C\c2nccc3c2[nH]c2ccccc23)cc1 ), measured inhibition is 3.87

----------
Experiment: M. tuberculosis growth inhibition, HTS (AID 449762);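 also: bacterial growth assessed after seven days of incubation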
Conditions: M. tuberculosis H37Rv growth inhibition, 7H9 media; at 25 µM; stronger effect = higher value
Out of some 330,000 compounds screened, about 1,900 (0.58%) were called active. About 4% were inconclusive and are not listed. Not all results are given here. Entries with a potency or affinity are not part of this list.
recorded metric: inhibition (%)
Write the number in % without appending the unit.

[
  {
    "compound string": "Cc1nn(-c2ccccc2)c(Cl)c1C(=O)N(C)CC(=O)Nc1cccc(F)c1",
    "inhibition (%)": 0.93
  },
  {
    "compound string": "Clc1ccc(Cn2ncc3c(N4CCCC4)ncnc32)cc1",
    "inhibition (%)": 6.77
  }
]

Please look at the following molecule next.
For this molecule ( Cc1ccc(S(=O)(=O)Nc2cccc3ncccc23)cc1 ), measured inhibition is 0.6

----------
Test: M. tuberculosis growth inhibition, HTS (AID 449762);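 also: bacterial growth assessed after seven days of incubation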
Details: M. tuberculosis H37Rv growth inhibition, 7H9 media; at 25 µM; stronger effect = higher value
Among all 330,000 compounds or so, about 1,900 (0.58%) were called active. Inconclusive results (about 4%) are left out. The list is a sample of the results. Results with a measured potency or affinity are listed apart.
In this section we review reported inhibition values for a set of molecules.
Write the number in % without appending the unit.

Worked examples follow.
[
  {
    "compound string": "CN(C1CCCCC1)S(=O)(=O)c1ccc(SCC(=O)NC(C)(C)C)nc1",
    "unit abbreviation": "%",
    "inhibition": -0.68
  },
  {
    "compound string": "CCOC(=O)C(=O)N=Nc1c(O)n(C)c2ccccc12",
    "unit abbreviation": "%",
    "inhibition": 1.87
  }
]

Please look at the following molecule next.
For this molecule ( CCOc1ccccc1NC(=O)Nc1ccc2c(c1)OCO2 ), measured inhibition is 0.34
